# System: 293T-HRE-GFP-luc cells
# procedure-details: Cell-based reporter assay for IC50 determinations (HRE-luciferase, hypoxia)
# measurement-context: 6 h, 6 hrs hypoxia (1% O2), luminescence
Measured IC50, listed per entry.
observed-property: IC50

>>> print(df.to_string())
                                   compound                  system  observed_property     test_result
0  COCCOc1cccc(Cn2cc(-c3noc(-c4ccc(S(=O)(=O)N(C)C)cc4)n3)ccc2=O)c1 [Example 216]  293T-HRE-GFP-luc cells               IC50  100 to 1000 nM
1  CC(C)(O)c1cccc(Cn2cc(-c3nnc(-c4ccc(OC(F)F)cc4)o3)ccc2=O)c1 [Example 261]  293T-HRE-GFP-luc cells               IC50  100 to 1000 nM
2  COCCOc1cccc(Cn2cc(-c3noc(-c4cnc(OCCOC)nc4)n3)ccc2=O)c1 [Example 239]  293T-HRE-GFP-luc cells               IC50  100 to 1000 nM
